TGT: CDK17/Cyclin Y (Homo sapiens, UniProt Q00537)
Sequence (Q00537 whole entry): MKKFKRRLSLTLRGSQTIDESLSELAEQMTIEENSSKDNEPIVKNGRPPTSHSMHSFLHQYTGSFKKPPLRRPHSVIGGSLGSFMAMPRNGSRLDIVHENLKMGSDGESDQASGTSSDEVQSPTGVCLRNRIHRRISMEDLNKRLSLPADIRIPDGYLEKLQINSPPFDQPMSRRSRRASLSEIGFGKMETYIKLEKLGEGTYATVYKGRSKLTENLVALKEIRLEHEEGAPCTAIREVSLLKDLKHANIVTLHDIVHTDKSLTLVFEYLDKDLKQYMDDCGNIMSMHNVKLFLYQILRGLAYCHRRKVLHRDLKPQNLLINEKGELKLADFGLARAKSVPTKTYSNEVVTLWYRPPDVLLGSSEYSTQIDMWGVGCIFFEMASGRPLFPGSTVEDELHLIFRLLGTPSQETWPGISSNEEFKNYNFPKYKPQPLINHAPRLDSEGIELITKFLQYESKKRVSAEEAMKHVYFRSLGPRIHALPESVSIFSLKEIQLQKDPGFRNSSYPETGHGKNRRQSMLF
Sequence (Q8ND76 whole entry partner): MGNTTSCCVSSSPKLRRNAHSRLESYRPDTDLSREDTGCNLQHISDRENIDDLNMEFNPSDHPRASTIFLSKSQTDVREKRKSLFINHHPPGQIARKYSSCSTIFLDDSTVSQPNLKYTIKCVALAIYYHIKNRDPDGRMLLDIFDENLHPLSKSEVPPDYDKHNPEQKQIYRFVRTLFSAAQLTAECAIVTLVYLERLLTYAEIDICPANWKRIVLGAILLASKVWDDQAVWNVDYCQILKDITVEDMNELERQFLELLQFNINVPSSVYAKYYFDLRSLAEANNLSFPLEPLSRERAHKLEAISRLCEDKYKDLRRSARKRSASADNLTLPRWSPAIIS
EXPERIMENT NOTES: NanoBRET live-cell target engagement, CDK17-NanoLuc/Cyclin Y in HEK-293
Assay type: binding
CONDITIONS USED: CDK17/Y; experiment 2; read-out: Inhibition at 10µM (%)
QUANTITY: inhibition at 10 µM

>>> reported_measurement("CC(C)c1cnn2c(NCc3ccccc3)cc(NC[C@H]3CCNC[C@@H]3O)nc12")
"66.3%"
>>> reported_measurement("CC(C)N1CCN(c2ccc(Nc3ncc4cc5n(c4n3)C3(CCCCC3)CNC5=O)nc2)CC1")
"41.4%"
>>> reported_measurement("Cn1cc(-c2ccc(-c3cncc(Cl)c3N3CCC4(CCNC4=O)CC3)cc2)cn1")
"-3.2%"
>>> reported_measurement("CN1CCN(c2ccc(Nc3ncc4cc(C#N)c(=O)n(C5CCCC5)c4n3)cc2)CC1")
"78.9%"
>>> reported_measurement("COc1ccc(F)cc1-c1cc(NC(=O)C2CCCNC2)ncc1Cl (stereo not drawn)")
"92.6%"
>>> reported_measurement("CC(C)(C)c1nc(-c2cccc(NS(=O)(=O)c3c(F)cccc3F)c2F)c(-c2ccnc(N)n2)s1")
"4%"
